Attribute: melting point

// worked examples, melting point included
CCOc1csc2c(=O)c(S(C)=O)cn(C)c12 (stereo not drawn): 210 to 214 °C
COc1ccc(-c2cc(C(=O)NCc3ccccn3)c(=O)n(CC3CC3)n2)cc1: 98.6 to 99.3 °C
CCCCC[C@H](CC(=O)OC(C)(C)C)C(=O)N1C(=O)OC[C@@H]1C(C)C: 51 to 53 °C
COc1ccc(-c2nc(C(=O)Nc3nccs3)c(-c3ccc(C)cc3)[nH]2)c2ccccc12: > 250 °C
O=C(NC12CC3CC(CC(C3)C1)C2)c1cccc2c1OCCO2: 137 °C

Problem: // fetch melting point given entry OC(CSc1ncnc2c1cnn2CC1CO1)CN1CCN(C(c2ccccc2)c2ccccc2)CC1 (stereo not drawn)
Solution: 87 to 92 °C

Problem: // fetch melting point given entry `COC(=O)c1ccc(Cc2c(C)[nH]c(C)cc2=O)cc1`
Solution: 226 to 228 °C

Problem: // fetch melting point given entry `CCOC(=O)c1cnn2c1nc(N1CCCCC1)c1cnc3c(cnn3CC)c12`
Solution: 183 to 184 °C

Problem: // fetch melting point given entry `CC(=O)Nc1ccccc1C(=O)NC(=O)Nc1ccc(Oc2ncc(Br)cn2)c(C)c1`
Solution: 186 to 191 °C

Problem: // fetch melting point given entry `CCNc1ncn(CC)c2nc(C3CC3)nc1-2`
Solution: 103 to 105 °C

Problem: // fetch melting point given entry `CCCOc1ccc(S(=O)(=O)Nc2ccc3[nH]ncc3c2)cc1-c1nc2cc(Cl)c([N+](=O)[O-])cc2c(=O)[nH]1`
Solution: 261 to 263 °C

Problem: // fetch melting point given entry `CCOC(=O)c1c(-c2ccc(-c3ccccn3)cc2)n(C)n(-c2ccc(C#N)cc2)c1=O`
Solution: 205 to 211 °C

Problem: // fetch melting point given entry COc1ncccc1Nc1c(NC(NC(=O)c2cc(F)cc(F)c2)C(C)(C)C)c(=O)c1=O (stereo not drawn)
Solution: 221 to 223 °C
